Every entry's value here was drawn from the RepoRT retention time repository (doi:10.1016/j.chroma.2019.01.023).

We begin with a simple list: items and their reported LC retention time.
- TEST_PROTOCOL: RP, Phenomenex Kinetex C18, 150 × 2.1 mm, 1.7 µm, 30 °C, 0.3 mL/min, estimated dead time 1.1 min; A: water + 0.1% formic acid, pH 3; B: acetonitrile + 0.1% formic acid, pH 3; gradient (min/%B) 0/2 14/100 17/100 17.1/2 25/2
- SETTINGS: stereoisomer not certain
Provide only the numeric value, understood in min.

Here's what some known entries look like.
- COMPOUND: "N[C@@H](Cc1ccc(O)c([N+](=O)[O-])c1)C(=O)O [3-NITRO-L-TYROSINE]"
  LC retention time / min: 3.48
- COMPOUND: "CCCCCCSCC(NC(=O)CCC(N)C(=O)O)C(=O)NCC(=O)O (centres undefined) [S-HEXYL-GLUTATHIONE]"
  LC retention time / min: 6.22

Entry CC(=O)N1CCCC1C(=O)O (centres undefined) [N-ACETYLPROLINE] : reported LC retention time = ?
3.39

Entry O=C(O)c1cc(=O)c2cccc(O)c2[nH]1 [XANTHURENATE] : reported LC retention time = ?
4.05
